The measurements presented in this section are drawn from paper PMC6269778.

Here, each record is paired with measured inhibition at 25 µg/mL data.
molecular target: urease (Canavalia ensiformis); assay: biochemical; type: biochemical; settings: read-out: Percentage inhibition at 25 µg/mL
Sequence (P07374 whole entry, looked up): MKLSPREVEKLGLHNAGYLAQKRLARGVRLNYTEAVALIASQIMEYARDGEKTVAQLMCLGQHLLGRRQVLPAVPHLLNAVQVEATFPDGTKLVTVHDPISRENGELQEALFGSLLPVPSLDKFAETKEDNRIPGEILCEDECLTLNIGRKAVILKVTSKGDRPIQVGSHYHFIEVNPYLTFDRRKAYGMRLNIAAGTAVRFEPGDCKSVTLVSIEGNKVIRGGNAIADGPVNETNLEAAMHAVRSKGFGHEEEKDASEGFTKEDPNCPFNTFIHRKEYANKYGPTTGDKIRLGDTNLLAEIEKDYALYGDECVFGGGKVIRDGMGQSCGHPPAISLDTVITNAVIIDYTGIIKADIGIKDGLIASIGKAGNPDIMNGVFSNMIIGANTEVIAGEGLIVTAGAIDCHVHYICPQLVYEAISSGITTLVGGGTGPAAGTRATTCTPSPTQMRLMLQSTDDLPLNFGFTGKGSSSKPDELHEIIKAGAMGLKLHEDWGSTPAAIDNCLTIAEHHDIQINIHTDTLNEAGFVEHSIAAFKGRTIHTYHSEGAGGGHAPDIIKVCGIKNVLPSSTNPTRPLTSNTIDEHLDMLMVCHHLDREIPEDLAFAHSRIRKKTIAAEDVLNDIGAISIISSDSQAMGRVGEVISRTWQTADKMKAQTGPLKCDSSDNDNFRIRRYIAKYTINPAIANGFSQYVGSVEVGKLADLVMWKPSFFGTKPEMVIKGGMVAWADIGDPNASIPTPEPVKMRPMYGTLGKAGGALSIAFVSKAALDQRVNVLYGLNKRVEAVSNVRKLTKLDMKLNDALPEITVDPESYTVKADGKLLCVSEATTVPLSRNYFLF
Please state the figure in %; there is no need to write the unit.

State, in one line, measured inhibition at 25 µg/mL of Nc1nc2ccc(-c3ccccc3)cc2s1 [Compound 3e, 6-Phenylbenzo[d]thiazole-2-amine]
48

State, in one line, measured inhibition at 25 µg/mL of Nc1nc2ccc(Br)cc2s1 [Compound 2, 6-Bromobenzo[d]thiazole-2-amine]
43

State, in one line, measured inhibition at 25 µg/mL of CC(=O)Nc1nc2ccc(Br)cc2s1 [Compound 4, N-(6-Bromobenzo[d]thiazol-2-yl)acetamide]
39

New cases:
State, in one line, measured inhibition at 25 µg/mL of COc1ccc(-c2ccc3nc(N)sc3c2)cc1 [Compound 3c]
44

State, in one line, measured inhibition at 25 µg/mL of Nc1nc2ccc(-c3ccc(Cl)cc3)cc2s1 [Compound 3b]
39

State, in one line, measured inhibition at 25 µg/mL of Cc1ccc(-c2ccc3nc(N)sc3c2)cc1 [Compound 3a, 6-p-Tolylbenzo[d]thiazole-2-amine]
46

State, in one line, measured inhibition at 25 µg/mL of Nc1nc2ccc(-c3cc(C(F)(F)F)cc(C(F)(F)F)c3)cc2s1 [Compound 3d]
43
